Tested on: glutathione-S-transferase fusion protein of kinase-inactive ERK1 (GSTERK1K71R)
Test: Kinase activity of the modified MEK1 peptides, GSTERK1K71R substrate, [γ-32P]ATP
Type: biochemical
Conditions: after Raf activation; 50 ng modified MEK peptide, 10 μM ATP, room temperature 20 minutes; initial experiments
reported metric: specific activities
Could you kindly put the unit after your number?

Request: Query: specific activities; subject: MEK1-C3 (d280-323) (protein) LDEQQRKRLEAFLTQKQKVGELKDDDFEKISELGAGNGGVVFKVSHKPSGLVMARKLIHLEIKPAIRNQIIRELQVLHECNSPYIVGFYGAFYSDGEISICMEHMDGGSLDQVLKKAGRIPEQILGKVSIAVIKGLTYLREKHKIMHRDVKPSNILVNSRGEIKLCDFGVSGQLIDSMANSFVGTRSYMSPERLQGTHYSVQSDIWSMGLSLVEMAVGRYPIPPPDAKELELMFGCQVKLPSGVFSLEFQDFVNKCLIKNPAERADLKQLMVHAFIKRSDAEEVDFAGWLCSTIGLNQPSTPTHAAGV
Response: 26.9 pmol PO4 min-1 mg-1

Request: What do we get for MEK1 (wt)(d280-323) (protein) MPKKKPTPIQLNPAPDGSAVNGTSSAETNLEALQKKLEELELDEQQRKRLEAFLTQKQKVGELKDDDFEKISELGAGNGGVVFKVSHKPSGLVMARKLIHLEIKPAIRNQIIRELQVLHECNSPYIVGFYGAFYSDGEISICMEHMDGGSLDQVLKKAGRIPEQILGKVSIAVIKGLTYLREKHKIMHRDVKPSNILVNSRGEIKLCDFGVSGQLIDSMANSFVGTRSYMSPERLQGTHYSVQSDIWSMGLSLVEMAVGRYPIPPPDAKELELMFGCQVKLPSGVFSLEFQDFVNKCLIKNPAERADLKQLMVHAFIKRSDAEEVDFAGWLCSTIGLNQPSTPTHAAGV ?
Response: 40.1 pmol PO4 min-1 mg-1

Request: What do we get for MEK1-C2 (d280-323) (protein) ELKDDDFEKISELGAGNGGVVFKVSHKPSGLVMARKLIHLEIKPAIRNQIIRELQVLHECNSPYIVGFYGAFYSDGEISICMEHMDGGSLDQVLKKAGRIPEQILGKVSIAVIKGLTYLREKHKIMHRDVKPSNILVNSRGEIKLCDFGVSGQLIDSMANSFVGTRSYMSPERLQGTHYSVQSDIWSMGLSLVEMAVGRYPIPPPDAKELELMFGCQVKLPSGVFSLEFQDFVNKCLIKNPAERADLKQLMVHAFIKRSDAEEVDFAGWLCSTIGLNQPSTPTHAAGV ?
Response: 24.1 pmol PO4 min-1 mg-1
